Each recorded value in this set is attributed to PubChem BioAssay AID1159580.

normalized growth for assorted molecules
MEASUREMENT_PROTOCOL: chemical genetic growth profiling, strain panel (AID 1159580);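 further: tested at 20 µM; growth read once vehicle control cultures reached saturation at 30 °C; 1 = growth at the plate median or of vehicle wells; lower values mean less growth of the strain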
MEASUREMENT_SETUP: S. cerevisiae deletion strains, growth OD, locus YHR142W, strain chs7, hits give low values
The campaign covered roughly 5,500 compounds. About 2,000 (36%) were called active. About 18% were inconclusive and are not listed. Some of the results follow.
VALUE_TYPE: normalized growth

INSERT INTO measurements (molecule, value_type, result) VALUES
  ('C/C=C(/C)C(=O)O[C@@H]1[C@H](OC(C)=O)[C@@]2(CO)C(CC1(C)C)C1=CCC3[C@@]4(C)CC[C@H](O[C@@H]5O[C@H](C(=O)O)[C@@H](O[C@@H]6O[C@H](CO)[C@@H](O)[C@H](O)[C@H]6O)[C@H](O)[C@H]5O[C@@H]5O[C@H](CO)[C@@H](O)[C@H](O)[C@H]5O)[C@](C)(CO)C4CC[C@@]3(C)[C@]1(C)C[C@H]2O (some centres undefined)', 'normalized growth', '1.01 (inactive)'),
  ('CC(CC(=O)C1OC1(C)C)C1C(=O)CC2(C)C3=CCC4C(C)(C)C(OC5OCC(O)C(O)C5O)CCC45CC35C(O)CC12C (centres undefined)', 'normalized growth', '1.01 (inactive)'),
  ('CC1(C)CCC2(C(=O)O)CCC3(C)C(=CCC4C5(C)CCC(O)C(C)(C)C5C(O)CC43C)C2C1 (centres undefined)', 'normalized growth', '1.02 (inactive)'),
  ('C[C@H]1[C@H](C)CC[C@]2(CO)CC[C@]3(C)C(=CCC4[C@@]5(C)CC[C@H](O)C(C)(C)C5CC[C@]43C)[C@H]12 (some centres undefined)', 'normalized growth', '1.01 (inactive)');
